This collection of values is drawn from ChEMBL document CHEMBL3988442.

Target: Aspartate--tRNA(Asp/Asn) ligase (Mycobacterium tuberculosis (strain ATCC 25618 / H37Rv)) (UniProt P9WFW3); note: in the data most compounds retested in dose-response had high values
Experiment: Assay for Asp RNA synthetase-1 from Mycobacterium tuberculosis
Type: functional
Design: scale not given: direction of the effect not stated beside the values
Conditions: 30 µM
Measurement type: Percent Effect (%)
Report the figure in % without appending any unit label.

[
  {
    "Compound": "COCC(=O)N1CCC2(CC1)CC(CC(=O)NC1CC1)c1ccccc12 (configuration not stated)",
    "Percent Effect, %": -1.39
  }
]

Entry under test: Cc1nn(C)c(N(C)C)c1CNC(C)COc1cccc(F)c1 (configuration not stated) . Its Percent Effect was -0.463

---

Target: Shiga toxin 2 (Escherichia coli O157:H7) (UniProt P09385+P09386)
Experiment: E. coli 0.157:H7 Shiga Toxin SOP - stx2 screening assay
Assay type: functional
Design: scale not given: direction of the effect not stated beside the values
Conditions: 30 µM
# Lookup of reported Percent Effect keyed by entry

Entry under test: c1csc(CN2Cc3nccn3CC(Cn3cncn3)C2)n1 (stereo not drawn) . Its Percent Effect was -4.98%

Entry under test: CC(O)CC(C)(C)CNC(=O)NCc1cccc(-n2ccnc2)c1 (stereo not drawn) . Its Percent Effect was -7.32%

Entry under test: Cc1ccsc1[C@@H]1CCN(C(=O)c2cc3ccccc3[nH]2)C[C@H]1O . Its Percent Effect was -11.7%

Entry under test: O=c1cc(CN2CCCC(CCc3c(F)cccc3F)C2)[nH]c(=O)[nH]1 (stereo not drawn) . Its Percent Effect was -12.7%

Entry under test: COc1cc(CN2CC[C@@]3(CCCO3)[C@@H](O)C2)ccc1F . Its Percent Effect was 3%

Entry under test: Cc1nc(CN2CCN(CC(=O)Nc3c(C)cccc3C)CC2)no1 . Its Percent Effect was -6.23%

Entry under test: O=C(NCc1ccco1)[C@@]12CCO[C@@H]1CCN(CCN1CCCC1)C2 . Its Percent Effect was -24.8%

Entry under test: CNC(=O)[C@H]1C[C@@H]2CN(S(=O)(=O)c3ccccc3)C[C@@H]2N1C(C)=O . Its Percent Effect was -6.09%

Entry under test: CC(=O)NCCNC(=O)c1sc(-c2ccc(C)cc2C)nc1C . Its Percent Effect was 2.48%

Entry under test: CC1CCCN(C(=O)c2csc(S(N)(=O)=O)c2)CC1 (stereo not drawn) . Its Percent Effect was -19.1%

Entry under test: Cc1n[nH]c(C)c1C1CCCN1C(=O)NCCSC(C)(C)C (stereo not drawn) . Its Percent Effect was -9.79%

Entry under test: COc1ccccc1C1CNC(=O)c2nc(-c3ncc[nH]3)[nH]c2C1 (stereo not drawn) . Its Percent Effect was -14.6%

---

Molecular target: Aspartate--tRNA(Asp/Asn) ligase (Mycobacterium tuberculosis (strain ATCC 25618 / H37Rv)); note: in the data most compounds retested in dose-response had high values
Sequence (whole entry): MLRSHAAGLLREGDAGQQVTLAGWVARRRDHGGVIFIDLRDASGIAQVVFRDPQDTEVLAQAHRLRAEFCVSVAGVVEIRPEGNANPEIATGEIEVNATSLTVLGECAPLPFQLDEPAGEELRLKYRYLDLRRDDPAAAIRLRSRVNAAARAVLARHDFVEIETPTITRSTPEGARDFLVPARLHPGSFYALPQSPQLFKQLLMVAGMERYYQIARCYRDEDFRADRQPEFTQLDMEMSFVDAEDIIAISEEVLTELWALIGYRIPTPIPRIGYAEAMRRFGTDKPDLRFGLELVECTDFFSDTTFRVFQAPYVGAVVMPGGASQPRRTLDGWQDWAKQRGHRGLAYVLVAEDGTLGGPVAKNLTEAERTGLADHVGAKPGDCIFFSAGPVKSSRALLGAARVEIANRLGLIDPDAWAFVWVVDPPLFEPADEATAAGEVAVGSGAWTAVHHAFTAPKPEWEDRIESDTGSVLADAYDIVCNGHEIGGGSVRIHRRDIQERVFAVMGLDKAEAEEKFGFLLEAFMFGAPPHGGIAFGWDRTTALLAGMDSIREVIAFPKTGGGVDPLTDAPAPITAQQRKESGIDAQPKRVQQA
Assay: Assay for Asp RNA synthetase-1 from Mycobacterium tuberculosis
Format: functional
Parameters: scale not given: direction of the effect not stated beside the values
Settings: 30 µM
Measurement type: Percent Effect (%)
Report the figure in % without appending any unit label.

The following molecules have reported results that may help.
[
  {
    "Molecule": "CC1(C)CC(N2Cc3nc(N4CCOCC4)ncc3C2=O)CC(C)(C)N1",
    "Measurement type": "Percent Effect",
    "Unit spec": "%",
    "Value observed": -4.82
  },
  {
    "Molecule": "COCCCN1CCC(NC(=O)C(C)C)CC1",
    "Measurement type": "Percent Effect",
    "Unit spec": "%",
    "Value observed": -2.37
  },
  {
    "Molecule": "Cc1cc(C(=O)N2CCN(C(=O)Cc3ccccn3)CC2)c(C)s1",
    "Measurement type": "Percent Effect",
    "Unit spec": "%",
    "Value observed": 2.55
  }
]

Entry under test: Cn1cnnc1S(=O)(=O)C1CCN(S(=O)(=O)C2CC2)CC1 . Its Percent Effect was -0.604

Entry under test: CC(C)n1ccnc1C1CCN(C(=O)c2ccccc2)CC1 . Its Percent Effect was -4.71

Entry under test: CCC(=O)NC1CCN(c2cccc(CC)c2)CC1 . Its Percent Effect was 1.79

---

# Lookup of reported Percent Effect keyed by entry
Molecular target: Proteasome subunit beta (Trypanosoma cruzi) (UniProt O96673)
Sequence (O96673 as listed by the source): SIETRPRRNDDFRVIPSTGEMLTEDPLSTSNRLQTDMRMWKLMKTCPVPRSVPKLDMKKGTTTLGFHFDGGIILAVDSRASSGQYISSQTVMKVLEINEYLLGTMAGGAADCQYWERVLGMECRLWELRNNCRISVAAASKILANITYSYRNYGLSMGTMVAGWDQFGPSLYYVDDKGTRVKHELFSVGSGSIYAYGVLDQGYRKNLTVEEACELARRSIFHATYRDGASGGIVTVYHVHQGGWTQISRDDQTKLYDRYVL
Experiment: Trypanosoma cruzi proteasome chymotrypsin-like activity (TcProtChymo) assay. Note: in the data most compounds retested in dose-response had high values.
Format: functional
Design: scale not given: direction of the effect not stated beside the values
Conditions: 9.37 µM
Report the figure in % without appending any unit label.

[
  {
    "Molecule": "O=C1CO[C@@H]2CN(Cc3cccs3)C[C@H]2N1Cc1ccncc1",
    "Value observed": 21.8
  },
  {
    "Molecule": "NC(=O)CN1CCCN(C(=O)Cc2ccc3ccccc3c2)CC1",
    "Value observed": 0.594
  },
  {
    "Molecule": "Cc1cccc(CN2C(=O)C[C@H]3[C@@H]2CCN3Cc2ccccn2)n1",
    "Value observed": 12.8
  }
]

Entry under test: c1ccc(N2CCCC3(CCN(Cc4cccs4)C3)C2)nc1 (stereo unspecified) . Its Percent Effect was 10.4

Entry under test: Cn1c(=O)n(C)c2cc(C3SCC(=O)Nc4ccsc43)ccc21 (stereo unspecified) . Its Percent Effect was 12.9

Entry under test: c1cnc(N2CCC3(CCN(CC4CCOC4)C3)CC2)nc1 (stereo unspecified) . Its Percent Effect was 10.2

Entry under test: Cc1nc(NCC2CC2)nc2c1COCC21CCN(C)C1 (stereo unspecified) . Its Percent Effect was 19.1

Entry under test: O=C(CN1CCN(C(=O)Cc2ccc3c(c2)OCCO3)CC1)NC1CC1 . Its Percent Effect was 11.8

Entry under test: Cc1ccc(N2CCO[C@H]3CN(CC4CC4)C[C@H]32)nn1 . Its Percent Effect was 19.6

Entry under test: COc1cc(CNC(C)Cn2cccn2)cc(OC)c1OC (stereo unspecified) . Its Percent Effect was 2.87

Entry under test: CC(C)c1nccc([C@H]2C[C@@H]3CCN(Cc4ccoc4)C[C@H]3O2)n1 . Its Percent Effect was 16.7

---

Molecular target: Aspartate--tRNA(Asp/Asn) ligase (Mycobacterium tuberculosis (strain ATCC 25618 / H37Rv)) (UniProt P9WFW3); note: in the data most compounds retested in dose-response had high values
Assay: Assay for Asp RNA synthetase-1 from Mycobacterium tuberculosis
Assay type: functional
Set-up: scale not given: direction of the effect not stated beside the values
Conditions: 30 µM
Measurement type: Percent Effect (%)
Report the figure in % without appending any unit label.

The following compounds have reported results that may help.
[
  {
    "Compound": "CCCn1nc2c(cc1=O)CN(CCCN1CCCC1=O)CC2",
    "Percent Effect [%]": 10.1
  },
  {
    "Compound": "COc1c(CNCc2ccc(CN(C)C)cc2)c(C)nn1C",
    "Percent Effect [%]": 2.29
  },
  {
    "Compound": "Cc1ccc(C(=O)NS(=O)(=O)c2ccccc2C)c(=O)[nH]1",
    "Percent Effect [%]": -0.991
  },
  {
    "Compound": "CCc1nnc2n1CCN(C(=O)Cc1csc(-c3ccco3)n1)C2",
    "Percent Effect [%]": -2.26
  }
]

Entry under test: O=C(c1cc(F)ccc1F)C1CCN(C(=O)c2cccnc2O)CC1 . Its Percent Effect was -2.36

Entry under test: CCN(CC(=O)NC)S(=O)(=O)N1CCCCCC1 . Its Percent Effect was 1.14

Entry under test: CC(C)CN1CCCC2(CCN(C(=O)c3cnccn3)C2)C1 (centres undefined) . Its Percent Effect was 1.03

Entry under test: Cn1ccnc1CN1CCC2(CC1)CN(CC1CC1)C(=O)CO2 . Its Percent Effect was 2.11

Entry under test: CCN1CCN(C(=O)c2nc(C)n(-c3ccccc3Cl)n2)CC1 . Its Percent Effect was -3.15

Entry under test: CC(C(=O)N1CCCC1)N1CCC(c2nccn2Cc2cscn2)CC1 (centres undefined) . Its Percent Effect was 1.8

Entry under test: O=C(N1CCCCC1)N1CCN(CC(O)c2ccc(F)cc2)CC1 (centres undefined) . Its Percent Effect was -2.17

Entry under test: Cc1ccc(NC2CCN(C(=O)CN(C)C3CC3)CC2)nn1 . Its Percent Effect was -0.538

Entry under test: Cc1c[nH]c(CN(C)C(=O)c2cccc(CCC(C)(C)O)c2)n1 . Its Percent Effect was -1

Entry under test: CCc1ncc2c(n1)CN(Cc1nnc(C)o1)CC2 . Its Percent Effect was -4.37

Entry under test: COc1c(CNCc2cccc(CS(C)(=O)=O)c2)c(C)nn1C . Its Percent Effect was 1.7

Entry under test: CC(NC(=O)CCc1cccs1)c1nnc2n1CCC2 (centres undefined) . Its Percent Effect was -0.379

Entry under test: c1ccc(Cn2ccnc2CN2CCOC(Cn3cccn3)C2)cc1 (centres undefined) . Its Percent Effect was -3.22

Entry under test: Cc1ccccc1C(=O)NCc1ccc(N2CCNC(=O)C2)c(F)c1 . Its Percent Effect was -0.569

Entry under test: O=C(Nc1cccc(CNCc2csc(Br)c2)c1)C1CC1 . Its Percent Effect was -0.759

Entry under test: Cc1cnn(CC2CCCCN2C(=O)Cc2csc(C)n2)c1 (centres undefined) . Its Percent Effect was -2.23

Entry under test: CN(C)c1ncc2c(n1)C1(CCN(CC3CC3)C1)COC2 (centres undefined) . Its Percent Effect was 0.342

Entry under test: Cc1noc(C)c1CN1C(=O)[C@H]2CC[C@@H]1CN(Cc1cccnc1N)C2 . Its Percent Effect was 3.56

Entry under test: CN1CCN(C2CCN(CCOc3ccc(F)cc3)CC2)C1=O . Its Percent Effect was -2.61

Entry under test: COc1ccc(C2=CCN(C(=O)C3CCN(C)C(=O)C3)CC2)cc1 (centres undefined) . Its Percent Effect was 3.17
